Consider the following compounds and their measured CC50 at 24 h readings.
- procedureSummary: Cytotoxicity against african green monkey BGM cells after 24 hrs by MTT assay
- Assay type: cell-based
- appliedConditions: chlorocebus aethiops, read-out: MLD50
Enter your answer as a number in µM; do not include the unit.

Worked cases, answers included:
{"structureString": "Cc1ccc(S(=O)(=O)NCCCCNc2c(C#N)cnc3c2cnn3-c2ccccc2)cc1", "CC50 at 24 h [µM]": 682}
{"structureString": "N#Cc1cnc2c(cnn2-c2ccccc2)c1NCCCCNS(=O)(=O)c1ccccc1", "CC50 at 24 h [µM]": 248}

Lookup: Fill blank: measured CC50 at 24 h of the compound N#Cc1cnc2c(cnn2-c2ccccc2)c1NCCCCN is ____.
Found: 503

====

- Test system: Plasmodium falciparum
- procedureSummary: Antimalarial activity against chloroquine-resistant Plasmodium falciparum W2
- Type: functional, organism-based
assayEndpoint: IC50 (µM)
Enter your answer as a number in µM; do not include the unit.

Lookup: Fill blank: measured IC50 of the compound O=Cc1cn(-c2ccnc3cc(Cl)ccc23)nn1 is ____.
Found: 1.4

====

Consider the following compounds and their measured CC50 at 24 h readings.
- procedureSummary: Cytotoxicity against african green monkey BGM cells after 24 hrs by MTT assay
- Format: cell-based
- appliedConditions: chlorocebus aethiops, read-out: MLD50

Worked cases, answers included:
{"structureString": "N#Cc1cnc2c(cnn2-c2ccccc2)c1NCCCCNS(=O)(=O)c1ccc(Cl)cc1", "CC50 at 24 h": "418 µM"}
{"structureString": "COc1ccc(S(=O)(=O)NCCCCNc2c(C#N)cnc3c2cnn3-c2ccccc2)cc1", "CC50 at 24 h": "498 µM"}
{"structureString": "CCOC(=O)c1cnc2c(cnn2-c2ccccc2)c1NCCCCNS(=O)(=O)c1ccc(OC)cc1", "CC50 at 24 h": "995 µM"}
{"structureString": "COc1ncnc(NS(=O)(=O)c2ccc(N)cc2)c1OC", "CC50 at 24 h": "310 µM"}
{"structureString": "CCOC(=O)c1cnc2c(cnn2-c2ccccc2)c1NCCCCNS(=O)(=O)c1ccccc1", "CC50 at 24 h": "822 µM"}

Lookup: Fill blank: measured CC50 at 24 h of the compound CCOC(=O)c1cnc2c(cnn2-c2ccccc2)c1NCCCCNS(=O)(=O)c1ccc(Cl)cc1 is ____.
Found: > 1000 µM

Lookup: Fill blank: measured CC50 at 24 h of the compound CCOC(=O)c1cnc2c(cnn2-c2ccccc2)c1NCCCCNS(=O)(=O)c1ccc(C)cc1 is ____.
Found: 596 µM

Lookup: Fill blank: measured CC50 at 24 h of the compound CCOC(=O)c1cnc2c(cnn2-c2ccccc2)c1NCCCCNS(=O)(=O)c1ccc(F)cc1 is ____.
Found: 993 µM

Lookup: Fill blank: measured CC50 at 24 h of the compound N#Cc1cnc2c(cnn2-c2ccccc2)c1NCCCCNS(=O)(=O)c1ccc(F)cc1 is ____.
Found: 508 µM

====

- procedureSummary: Selectivity index, ratio of MLD50 for african green monkey BGM cells to IC50 for chloroquine/sulfadoxine-resistant Plasmodium falciparum W2
- Assay type: toxicity, cell-based
- appliedConditions: read-out: Selectivity Index
assayEndpoint: selectivity ratio

Worked cases, answers included:
{"structureString": "COc1ncnc(NS(=O)(=O)c2ccc(N)cc2)c1OC", "selectivity ratio": 20.7}
{"structureString": "N#Cc1cnc2c(cnn2-c2ccccc2)c1NCCCCNS(=O)(=O)c1ccc(F)cc1", "selectivity ratio": 54.6}
{"structureString": "N#Cc1cnc2c(cnn2-c2ccccc2)c1NCCCCN", "selectivity ratio": 101}
{"structureString": "CCOC(=O)c1cnc2c(cnn2-c2ccccc2)c1NCCCCNS(=O)(=O)c1ccc(F)cc1", "selectivity ratio": 241}
{"structureString": "Cc1ccc(S(=O)(=O)NCCCCNc2c(C#N)cnc3c2cnn3-c2ccccc2)cc1", "selectivity ratio": 189}
{"structureString": "CCOC(=O)c1cnc2c(cnn2-c2ccccc2)c1NCCCCNS(=O)(=O)c1ccccc1", "selectivity ratio": 126}

We next turn to a different compound, shown below.
Lookup: Fill blank: measured selectivity ratio of the compound CCOC(=O)c1cnc2c(cnn2-c2ccccc2)c1NCCCCNS(=O)(=O)c1ccc(C)cc1 is ____.
Found: 172

====

- procedureSummary: Selectivity index, ratio of MLD50 for african green monkey BGM cells to IC50 for chloroquine/sulfadoxine-resistant Plasmodium falciparum W2
- Format: toxicity, cell-based
- appliedConditions: read-out: Selectivity Index
Consider the following compounds and their measured selectivity ratio readings.
Just the number.

{"structureString": "COc1ccc(S(=O)(=O)NCCCCNc2c(C#N)cnc3c2cnn3-c2ccccc2)cc1", "selectivity ratio": 99.6}
{"structureString": "CCOC(=O)c1cnc2c(cnn2-c2ccccc2)c1NCCCCNS(=O)(=O)c1ccc(OC)cc1", "selectivity ratio": 107}
{"structureString": "N#Cc1cnc2c(cnn2-c2ccccc2)c1NCCCCNS(=O)(=O)c1ccc(Cl)cc1", "selectivity ratio": 55.7}

We next turn to a different compound, shown below.
Lookup: Fill blank: measured selectivity ratio of the compound N#Cc1cnc2c(cnn2-c2ccccc2)c1NCCCCNS(=O)(=O)c1ccccc1 is ____.
Found: 59
